# test-system: Cathepsin S (Homo sapiens)
# Sequence (P25774 whole entry): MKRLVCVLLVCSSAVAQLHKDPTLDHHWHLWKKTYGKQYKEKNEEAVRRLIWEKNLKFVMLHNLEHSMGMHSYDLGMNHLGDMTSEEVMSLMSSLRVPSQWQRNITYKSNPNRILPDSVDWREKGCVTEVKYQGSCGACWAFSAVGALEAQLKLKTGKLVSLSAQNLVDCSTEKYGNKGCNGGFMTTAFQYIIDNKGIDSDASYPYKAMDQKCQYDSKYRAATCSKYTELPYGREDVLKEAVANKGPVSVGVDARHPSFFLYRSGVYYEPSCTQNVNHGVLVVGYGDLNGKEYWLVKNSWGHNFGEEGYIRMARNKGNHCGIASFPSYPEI
# assay-summary: Inhibition of human recombinant cathepsin S by fluorescence assay
reported-endpoint: log10 IC50 (log10 of the value in nM)
The common logarithm of IC50 in nM is what is listed.

[
  {
    "chemical-structure": "CC(C)(C)CNc1nc(C#N)ncc1C#CCOc1cccnc1",
    "reported-value": 2.66
  },
  {
    "chemical-structure": "CC(C)(C)CNc1nc(C#N)ncc1C#CCN1CCc2ccccc2C1",
    "reported-value": 2.92
  },
  {
    "chemical-structure": "CC(C)(C)CNc1nc(C#N)ncc1C#CCn1cnc(Cl)c1Cl",
    "reported-value": 1.83
  },
  {
    "chemical-structure": "CN1CCN(c2ccc(CC#Cc3cnc(C#N)nc3NCC(C)(C)C)cc2)CC1",
    "reported-value": 2.88
  },
  {
    "chemical-structure": "CC(C)(C)CNc1nc(C#N)ncc1C#CCN1Cc2ccccc2C1",
    "reported-value": 2.96
  }
]

Endpoint output: log10 IC50 of CC(C)(C)CNc1nc(C#N)ncc1C#CCN1CCN(S(=O)(=O)CCCCl)CC1 . Value?
2.90

* * *

# test-system: Procathepsin L (Homo sapiens, UniProt P07711)
# Sequence (P07711 whole entry): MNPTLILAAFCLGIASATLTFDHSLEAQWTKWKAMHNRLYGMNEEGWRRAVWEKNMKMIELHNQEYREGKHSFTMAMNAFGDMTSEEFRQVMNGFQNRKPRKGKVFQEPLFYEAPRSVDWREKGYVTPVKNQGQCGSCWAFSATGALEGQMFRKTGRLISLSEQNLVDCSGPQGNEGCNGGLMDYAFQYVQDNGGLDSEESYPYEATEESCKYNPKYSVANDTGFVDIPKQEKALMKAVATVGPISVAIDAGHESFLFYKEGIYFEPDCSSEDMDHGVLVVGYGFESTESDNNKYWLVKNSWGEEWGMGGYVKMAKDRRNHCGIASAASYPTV
# assay-summary: Inhibition of human recombinant cathepsin L by fluorescence assay
pIC50: −log10 of the molar value.
Provide the reported pIC50 of each item.

In the examples that follow, each entry is paired with its recorded pIC50.
[
  {
    "chemical-structure": "CC(=O)N1CCN(CC#Cc2ccc(CN(CC(C)(C)C)c3ccnc(C#N)n3)cc2)CC1",
    "pIC50": "< 6.00"
  },
  {
    "chemical-structure": "CC(C)(C)CNc1nc(C#N)ncc1C#CCN1CCN(S(=O)(=O)CCCCl)CC1",
    "pIC50": "< 6.00"
  },
  {
    "chemical-structure": "CC(C)(C)CNc1nc(C#N)ncc1C#CCn1cnc(Cl)c1Cl",
    "pIC50": 6.72
  },
  {
    "chemical-structure": "CC(C)(C)CN(Cc1ccc(I)cc1)c1ccnc(C#N)n1",
    "pIC50": "< 6.00"
  },
  {
    "chemical-structure": "CC(C)(C)CNc1nc(C#N)ncc1C#CCN1Cc2ccccc2C1",
    "pIC50": "< 6.00"
  },
  {
    "chemical-structure": "CC(C)(C)CN(Cc1ccc(C#CCN2CCC(N3CCCCC3)CC2)cc1)c1ccnc(C#N)n1",
    "pIC50": "< 6.00"
  },
  {
    "chemical-structure": "CC(C)(C)CNc1nc(C#N)ncc1C#CCN1CCc2ccccc2C1",
    "pIC50": 6.82
  },
  {
    "chemical-structure": "CC(C)(C)CN(Cc1ccccc1)c1ccnc(C#N)n1",
    "pIC50": "< 6.00"
  }
]

For every item below, please supply its pIC50.
1. COc1ccc(S(=O)(=O)N2CCN(CC#Cc3cnc(C#N)nc3NCC(C)(C)C)CC2)cc1
2. CC(C)(C)CN(Cc1ccc(C#CCn2cncn2)cc1)c1ccnc(C#N)n1

["< 6.00", "< 6.00"]

# map each molecule to its pIC50
1. CC(C)(C)CN(Cc1ccc(C#CCN2CCCCC2)cc1)c1ccnc(C#N)n1
2. CC(C)(C)CN(Cc1ccc(Cn2cncn2)cc1)c1ccnc(C#N)n1

["< 6.00", "< 6.00"]

* * *

# test-system: Cathepsin K (Homo sapiens, UniProt P43235)
# Sequence (P43235 whole entry): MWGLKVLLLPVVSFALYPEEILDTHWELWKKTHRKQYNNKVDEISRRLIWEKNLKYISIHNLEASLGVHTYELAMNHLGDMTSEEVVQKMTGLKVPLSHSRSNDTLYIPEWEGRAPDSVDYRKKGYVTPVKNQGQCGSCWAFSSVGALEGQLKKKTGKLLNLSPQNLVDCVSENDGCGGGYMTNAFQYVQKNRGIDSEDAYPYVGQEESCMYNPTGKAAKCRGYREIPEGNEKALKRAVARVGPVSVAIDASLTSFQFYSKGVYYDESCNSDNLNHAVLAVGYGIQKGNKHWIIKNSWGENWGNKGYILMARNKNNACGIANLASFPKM
# assay-summary: Inhibition of human recombinant cathepsin K by fluorescence assay
Could you please report measured IC50 for the items listed next?
Answers are plain numbers, in nM.

Please report IC50 for every entry that follows.
1. CC(C)(C)CN(Cc1ccccc1)c1ccnc(C#N)n1
2. COc1ccc(S(=O)(=O)N2CCN(CC#Cc3cnc(C#N)nc3NCC(C)(C)C)CC2)cc1
3. CC(C)(C)CN(Cc1ccc(C#CCN2CCCCC2)cc1)c1ccnc(C#N)n1
4. CC(C)(C)CN(Cc1ccc(Cn2cncn2)cc1)c1ccnc(C#N)n1

[69, 7.1, 7.3, 4.8]

For each listed entry, give its IC50.
1. CC(C)(C)CN(Cc1ccc(I)cc1)c1ccnc(C#N)n1
2. CC(C)(C)CNc1nc(C#N)ncc1C#CCN1CCc2ccccc2C1
3. CC(C)(C)CN(Cc1ccc(C#CCN2CCC(N3CCCCC3)CC2)cc1)c1ccnc(C#N)n1
4. CN1CCN(c2ccc(CC#Cc3cnc(C#N)nc3NCC(C)(C)C)cc2)CC1

19
3.2
3.6
7.1

Could you tell me IC50 for each of these molecules? They are listed below.
1. CC(C)(C)CNc1nc(C#N)ncc1C#CCN1Cc2ccccc2C1
2. CC(=O)N1CCN(CC#Cc2ccc(CN(CC(C)(C)C)c3ccnc(C#N)n3)cc2)CC1
3. CN1CCN(CC#Cc2ccc(CN(CC(C)(C)C)c3ccnc(C#N)n3)cc2)CC1
4. CC(C)(C)CNc1nc(C#N)ncc1C#CCn1cnc(Cl)c1Cl
5. CC(C)(C)CN(Cc1ccc(C#CCn2cncn2)cc1)c1ccnc(C#N)n1

10
6.4
3.8
7.2
8.6

I would be grateful if you could provide IC50 for each of the following entries.
1. CC(C)(C)CNc1nc(C#N)ncc1C#CCN1CCN(S(=O)(=O)CCCCl)CC1
2. CC(C)(C)CNc1nc(C#N)ncc1C#CCOc1cccnc1

1: 3.7; 2: 8.6

* * *

# test-system: UniProt P07711
# assay-summary: Inhibition of human recombinant cathepsin L by fluorescence assay
reported-endpoint: IC50 (nM)
One number for each entry, in nM.

[
  {
    "chemical-structure": "CN1CCN(c2ccc(CC#Cc3cnc(C#N)nc3NCC(C)(C)C)cc2)CC1",
    "reported-value": 980
  }
]

Query compound follows.
Quick check: IC50 on UniProt P07711, item CC(C)(C)CNc1nc(C#N)ncc1C#CCOc1cccnc1 ?
1000
